Below, each entry is listed with its recorded pIC50.
molecular target: human acetyl-CoA carboxylase 1 (hACC1) (Homo sapiens, UniProt Q13085)
pIC50: −log10 of the molar value.

Molecule: COc1ccccc1C(Cn1nc(CC(=O)O)c(=O)c2c(C)c(-c3ncco3)sc21)OC1CCOCC1 (single isomer, unassigned) [WX003B]
pIC50: 7.96

Molecule: COC(=O)N1CCC(OC(Cn2nc(C(C)(C)C(=O)O)c(=O)c3c(C)c(-c4ncco4)sc32)c2ccccc2OC)CC1 (racemic) [WX015]
pIC50: 7.69

Molecule: COc1ccccc1[C@H](Cn1nc(C2(C(=O)O)CCOCC2)c(=O)c2c(C)c(-c3ncco3)sc21)OC1CCOCC1 [WX008B]
pIC50: 8.28
